protocol-details: Rat pharmacokinetics after IV infusion and oral dose (AUC oral, % F, Ue % PO)
Assay type: in vivo, Male Wistar Han rats
test-settings: PO 5 mg/kg, dose normalized AUC in blood, n = 3
observable: DNAUC oral h*uM

Here are 5 compounds together with their reported answers.
[
  {
    "compound": "Cc1cc(-c2cc(F)c(Cl)c(F)c2)ccc1[C@@H](CO)[C@H]1O[C@H](CO)[C@@H](O)[C@H](O)[C@@H]1O [Example 7]",
    "DNAUC oral h*uM": "“++” (0.5 ≤ x ≤ h · μM)"
  },
  {
    "compound": "Cc1cc(-c2cncc(C(F)(F)F)n2)ccc1[C@@H](C)[C@H]1O[C@H](CO)[C@@H](O)[C@H](O)[C@@H]1O [Example 29]",
    "DNAUC oral h*uM": "“+” (<0.5 h · μM)"
  },
  {
    "compound": "CC[C@H](c1ccc(-c2cncc(C#N)c2)cc1C)[C@H]1O[C@H](CO)[C@@H](O)[C@H](O)[C@@H]1O [Example 21]",
    "DNAUC oral h*uM": "“+” (<0.5 h · μM)"
  },
  {
    "compound": "Cc1cc(-c2cc(F)c(Cl)c(F)c2)ccc1[C@@H](CCO)[C@H]1O[C@H](CO)[C@@H](O)[C@H](O)[C@@H]1O [Example 14]",
    "DNAUC oral h*uM": "“+” (<0.5 h · μM)"
  },
  {
    "compound": "CC[C@H](c1ccc(-c2cc(F)cc(C#N)c2)cc1C)[C@H]1O[C@H](CO)[C@@H](O)[C@H](O)[C@@H]1O [Example 17]",
    "DNAUC oral h*uM": "“+” (<0.5 h · μM)"
  }
]

// returns reported DNAUC oral h*uM for input Cc1cc(-c2cncc(C(F)(F)F)c2)ccc1[C@@H](C)[C@H]1O[C@H](CO)[C@@H](O)[C@H](O)[C@@H]1O [Example 4]
“++” (0.5 ≤ x ≤ h · μM)

---

experimental-target: FimH (Escherichia coli, UniProt Q1R2J4)
Construct: endogenous in cells; host or cells: E. coli UTI89 (whole bacteria)
protocol-details: Hemagglutination inhibition (HAI) assay with UTI89 bacteria and guinea pig red blood cells; also: ranges in brackets are in nM
Assay type: cell-based
test-settings: HAI titer (EC>90): concentration reducing bacterial agglutination of guinea pig red blood cells by greater than 90%
Text: “HAI titer or EC>90” is that concentration of the FimH inhibitor/antagonist which reduces the bacterial agglutination of guinea pig red blood cells by greater than 90%. The activities of the Examples 1-34 compounds above as FimH antagonists/inhibitors were obtained by the following assay(s), and results are provided in Table 1. Results not provided mean that the activities have not yet been tested. Hemagglutination Inhibition Assay (HAI) […]
observable: HAI

[
  {
    "compound": "Cc1cc(-c2cncc(C(F)(F)F)n2)ccc1[C@@H](C)[C@H]1O[C@H](CO)[C@@H](O)[C@H](O)[C@@H]1O",
    "HAI": "“++++” (<50)"
  },
  {
    "compound": "C#C[C@@H](c1ccc(-c2cc(F)c(Cl)c(F)c2)cc1C)[C@H]1O[C@H](CO)[C@@H](O)[C@H](O)[C@@H]1O (single isomer, unassigned)",
    "HAI": "“+++” (50-200)"
  },
  {
    "compound": "CC[C@H](c1ccc(-c2cnc(C3CC3)cn2)cc1C)[C@H]1O[C@H](CO)[C@@H](O)[C@H](O)[C@@H]1O",
    "HAI": "“+++” (50-200)"
  },
  {
    "compound": "C=C[C@H](c1ccc(-c2cnc(C3CC3)cn2)cc1C)[C@H]1O[C@H](CO)[C@@H](O)[C@H](O)[C@@H]1O",
    "HAI": "“++++” (<50)"
  },
  {
    "compound": "Cc1cc(-c2cc(F)cc(F)c2)ccc1[C@@H](CO)[C@H]1O[C@H](CO)[C@@H](O)[C@H](O)[C@@H]1O",
    "HAI": "“+++” (50-200)"
  },
  {
    "compound": "CC[C@H](c1ccc(-c2ccn(C)c(=O)c2)cc1C)[C@H]1O[C@H](CO)[C@@H](O)[C@H](O)[C@@H]1O",
    "HAI": "“+++” (50-200)"
  },
  {
    "compound": "Cc1cc(-c2cnc(C(F)(F)F)cn2)ccc1[C@@H](C)[C@H]1O[C@H](CO)[C@@H](O)[C@H](O)[C@@H]1O",
    "HAI": "“++++” (<50)"
  },
  {
    "compound": "Cc1cc(-c2cncc(F)c2)ccc1[C@@H](C)[C@H]1O[C@H](CO)[C@@H](O)[C@H](O)[C@@H]1O",
    "HAI": "“+++” (50-200)"
  }
]

Would you mind giving HAI for every compound in the list below?
1. Cc1cc(-c2cc(C(F)(F)F)ccn2)ccc1[C@@H](C)[C@H]1O[C@H](CO)[C@@H](O)[C@H](O)[C@@H]1O (single isomer, unassigned)
2. C=C[C@H](c1ccc(-c2cncc(C#N)c2)cc1C)[C@H]1O[C@H](CO)[C@@H](O)[C@H](O)[C@@H]1O
3. Cc1cc(-c2cc(F)cc(F)c2)ccc1[C@@H](CCO)[C@H]1O[C@H](CO)[C@@H](O)[C@H](O)[C@@H]1O
4. C[C@H](c1ccc(-c2ccc(C(F)(F)F)cn2)cc1C(F)(F)F)[C@H]1O[C@H](CO)[C@@H](O)[C@H](O)[C@@H]1O
5. Cc1cc(-c2ccc(C(F)(F)F)nn2)ccc1C(C)[C@H]1O[C@H](CO)[C@@H](O)[C@H](O)[C@@H]1O (stereo partly shown)

["“+++” (50-200)", "“+++” (50-200)", "“+++” (50-200)", "“+++” (50-200)", "“++++” (<50)"]
